Biological target: TLR7 (Homo sapiens)
Construct: lymphocytes, monocytes and dendritic cells that express TLR7, TLR8 and TLR9; endogenous in cells; host or cells: human PBMCs from healthy donors
Sequence (Q9NYK1 27-1049): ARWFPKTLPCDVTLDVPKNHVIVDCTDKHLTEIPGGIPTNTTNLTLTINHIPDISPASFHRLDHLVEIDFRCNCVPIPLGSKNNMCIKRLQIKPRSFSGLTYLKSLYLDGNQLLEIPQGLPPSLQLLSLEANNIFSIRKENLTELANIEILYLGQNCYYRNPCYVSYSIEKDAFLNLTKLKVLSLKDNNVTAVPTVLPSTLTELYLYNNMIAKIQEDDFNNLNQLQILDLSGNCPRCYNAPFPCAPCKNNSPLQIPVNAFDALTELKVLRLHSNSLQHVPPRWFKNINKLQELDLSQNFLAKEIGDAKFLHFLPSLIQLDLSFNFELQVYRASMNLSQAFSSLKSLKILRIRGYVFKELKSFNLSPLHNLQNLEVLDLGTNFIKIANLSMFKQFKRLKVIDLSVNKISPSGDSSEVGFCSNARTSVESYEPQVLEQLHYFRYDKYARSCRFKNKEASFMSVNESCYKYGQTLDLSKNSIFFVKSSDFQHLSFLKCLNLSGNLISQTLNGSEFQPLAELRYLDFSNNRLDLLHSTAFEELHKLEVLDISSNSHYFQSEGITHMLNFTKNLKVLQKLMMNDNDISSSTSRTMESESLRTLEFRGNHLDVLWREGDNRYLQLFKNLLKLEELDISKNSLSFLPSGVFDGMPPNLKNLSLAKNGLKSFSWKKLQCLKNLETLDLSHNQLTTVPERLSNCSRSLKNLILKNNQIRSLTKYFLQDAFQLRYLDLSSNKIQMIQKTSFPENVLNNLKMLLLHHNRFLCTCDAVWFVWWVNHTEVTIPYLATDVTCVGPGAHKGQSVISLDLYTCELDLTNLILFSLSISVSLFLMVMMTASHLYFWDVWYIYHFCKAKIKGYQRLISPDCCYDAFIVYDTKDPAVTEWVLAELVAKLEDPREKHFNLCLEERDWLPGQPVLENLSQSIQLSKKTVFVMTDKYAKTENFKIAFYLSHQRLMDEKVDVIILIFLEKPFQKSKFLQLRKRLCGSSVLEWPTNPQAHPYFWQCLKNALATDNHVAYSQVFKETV
Assay: Human PBMC cell-based assay, TLR7 agonist GS-986 stimulation, cytokine (IL-6 and IFNα) readout
Conditions: human PBMCs, GS-986 400 nM, 6 hours; Table 26; read-out: TLR-7 EC50
Listed below: pEC50 values for each entry.
Bear in mind: pEC50 is minus log10 of a mol/L concentration; give just that figure.

Previously resolved entries follow.
[[record]]
compound = "Cc1c(-c2ccc(=O)n(C)c2)[nH]c2cc(-c3ccc(N4CCNCC4)nc3)ccc12 [Example 95]"
measure_name = "pEC50"
readout_number = 6.99

[[record]]
compound = "Cc1cc(-c2[nH]c3cc(-c4ccn5ncnc5c4)ccc3c2C)cc(C)n1 [Example 58]"
measure_name = "pEC50"
readout_number = 6.43

[[record]]
compound = "Cc1cc(-c2[nH]c3nc(C4CCNCC4)ccc3c2C)cc(C)n1 [Example 152]"
measure_name = "pEC50"
readout_number = 5.85


Using known records, supply pEC50 for Cc1cc(-c2[nH]c3cc(-c4ccc5ncn(C6CCNCC6)c5c4)ccc3c2C)cc(C)n1 [Example 166] 6.84

Using known records, supply pEC50 for CCc1c(-c2cc(C)nc(C)c2)[nH]c2cc(C3CCNCC3)ccc12 [Example 49] 6.26

Using known records, supply pEC50 for Cc1cc(-c2[nH]c3cc(-c4ccc(C(=O)N5CC[C@@H](N)C5)cc4)ccc3c2C)cc(C)n1 [Example 124] 7.26

Using known records, supply pEC50 for COc1cc(-c2ccc3c(C)c(-c4cc(C)nc(C)c4)[nH]c3c2)ccn1 [Example 56] 6.43

Using known records, supply pEC50 for Cc1cc(-c2[nH]c3cc(-c4ccc5c(c4)ncn5C4CCNCC4)ccc3c2C)cc(C)n1 [Example 148] 7.93

Using known records, supply pEC50 for Cc1cc(-c2[nH]c3cc(-c4ccc(N5CCN(C(=O)[C@@H]6CCNC6)CC5)nc4)ccc3c2C)cc(C)n1 [Example 139] 7.03

Using known records, supply pEC50 for Cc1c(-c2cnn(C)c2)[nH]c2cc(-c3ccc(N4CCNCC4)nc3)ccc12 [Example 87] 5.66

###

Target: TLR7 (Homo sapiens, UniProt Q9NYK1)
Construct: lymphocytes, monocytes and dendritic cells that express TLR7, TLR8 and TLR9; endogenous in cells; host or cells: human PBMCs from healthy donors
Sequence (Q9NYK1 27-1049): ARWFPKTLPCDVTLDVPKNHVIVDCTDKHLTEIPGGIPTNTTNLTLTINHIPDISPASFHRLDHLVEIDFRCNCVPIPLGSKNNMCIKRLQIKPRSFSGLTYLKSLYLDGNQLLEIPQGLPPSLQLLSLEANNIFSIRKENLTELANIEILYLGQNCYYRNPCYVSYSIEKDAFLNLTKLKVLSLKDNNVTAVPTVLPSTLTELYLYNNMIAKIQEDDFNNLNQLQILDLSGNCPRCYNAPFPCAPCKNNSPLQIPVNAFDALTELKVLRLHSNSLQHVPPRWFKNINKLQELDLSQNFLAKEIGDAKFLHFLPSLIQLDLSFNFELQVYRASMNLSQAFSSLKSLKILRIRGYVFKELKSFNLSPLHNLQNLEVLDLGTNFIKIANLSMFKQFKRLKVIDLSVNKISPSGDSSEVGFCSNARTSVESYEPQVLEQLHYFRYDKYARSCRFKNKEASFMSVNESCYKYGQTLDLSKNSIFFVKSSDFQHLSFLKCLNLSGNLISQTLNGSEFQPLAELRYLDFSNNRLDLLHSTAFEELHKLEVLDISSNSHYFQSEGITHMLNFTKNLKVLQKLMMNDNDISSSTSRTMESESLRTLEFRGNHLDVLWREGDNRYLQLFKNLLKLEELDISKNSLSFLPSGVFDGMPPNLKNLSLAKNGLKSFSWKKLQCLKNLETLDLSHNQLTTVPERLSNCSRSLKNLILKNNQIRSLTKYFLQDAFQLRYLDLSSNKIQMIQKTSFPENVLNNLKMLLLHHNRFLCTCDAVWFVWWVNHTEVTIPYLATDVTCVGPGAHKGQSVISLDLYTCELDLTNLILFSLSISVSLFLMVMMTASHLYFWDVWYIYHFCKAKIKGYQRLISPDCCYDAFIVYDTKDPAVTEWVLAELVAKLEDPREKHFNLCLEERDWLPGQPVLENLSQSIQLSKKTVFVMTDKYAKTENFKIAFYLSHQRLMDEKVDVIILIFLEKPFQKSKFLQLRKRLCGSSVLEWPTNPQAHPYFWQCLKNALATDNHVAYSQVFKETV
Assay: Human PBMC cell-based assay, TLR7 agonist GS-986 stimulation, cytokine (IL-6 and IFNα) readout
Conditions: human PBMCs, GS-986 400 nM, 6 hours; Table 26; read-out: TLR-7 EC50
measure-name: pEC50
Bear in mind: pEC50 is minus log10 of a mol/L concentration; give just that figure.

Previously resolved entries follow.
[[record]]
compound = "Cc1cc(-c2[nH]c3cc(-c4ccc(C5CCN(CCO)CC5)nc4)ccc3c2C)cc(C)n1"
readout_number = 7.62

[[record]]
compound = "Cc1c(-c2cc(C)c3ncnn3c2)[nH]c2cc(C3CCNCC3)ccc12"
readout_number = 7.45

[[record]]
compound = "Cc1cc(-c2[nH]c3cc(-c4ccc(N5CCNCC5)nc4)ccc3c2C)cnn1"
readout_number = 7.20

[[record]]
compound = "Cc1cc(-c2[nH]c3cc(-c4ccc(N5CCC(C)(N)CC5)nc4)ccc3c2C)cc(C)n1"
readout_number = 7.77

[[record]]
compound = "Cc1cc(-c2[nH]c3cc(-c4ccc(N5CCC(N)CC5)nc4)ccc3c2C)cc(C)n1"
readout_number = 8.07

[[record]]
compound = "Cc1c(-c2cc(C)c3ncnn3c2)[nH]c2cc(-c3ccc4nc([C@H]5N[C@@H]6CC[C@H]5C6)[nH]c4c3)ccc12"
readout_number = 9.96

[[record]]
compound = "Cc1c(-c2cc(C)c3ncnn3c2)[nH]c2nc(C3CCNCC3)ccc12"
readout_number = 6.96

[[record]]
compound = "Cc1cc(-c2[nH]c3cc(-c4cnn(C5CCCNC5)c4)ccc3c2C)cc(C)n1 (stereo not shown)"
readout_number = 7.05

[[record]]
compound = "Cc1cc(-c2[nH]c3cc(-c4ccc(N5CCC[C@H](N)C5)nc4)ccc3c2C)cc(C)n1"
readout_number = 7.51

[[record]]
compound = "Cc1cc(-c2[nH]c3cc(-c4ccc(N5C[C@H]6CC[C@@H](C5)[C@@H]6N)nc4)ccc3c2C)cc(C)n1"
readout_number = 7.20


Using known records, supply pEC50 for `Cc1cc(-c2[nH]c3cc(-c4nc(C5CCNCC5)no4)ccc3c2C)cc(C)n1` 6.97

Using known records, supply pEC50 for `CCc1c(-c2cc(C)c3ncnn3c2)[nH]c2cc(-c3ccc(N4CCN(CCO)CC4)nc3)ccc12` 9.96

Using known records, supply pEC50 for `Cc1cc(-c2[nH]c3cc(-c4ccc(N5CCN(CCO)C(=O)C5)nc4)ccc3c2C)cc(C)n1` 7.58

Using known records, supply pEC50 for `Cc1cc(-c2[nH]c3cc(-c4ccc(C(=O)N5CCC(N)CC5)nc4)ccc3c2C)cc(C)n1` 7.31
